- experimental.target: TJP2_1, Q9UDY2
- Sequence (Q9UDY2 24-128): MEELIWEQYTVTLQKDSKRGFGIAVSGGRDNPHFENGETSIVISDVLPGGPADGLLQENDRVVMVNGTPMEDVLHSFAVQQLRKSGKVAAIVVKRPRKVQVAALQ
- measurement.description: holdup assay
- Design: key: below the threshold = too weak to quantify, mostly under pKd 3.1 to 4
- experimental.parameters: plain residues with an end cap or a label only (N-terminal biotin on a linker: ahx)
measured.attribute: pKd

Solved cases (5 shown):
binder	result
RAVEEEESRF [PSCDBP, O60759]	below the threshold
LSDPSVSTVV [GRIN1, Q05586;Q05586-2]	below the threshold
GYDWGPATDL [TJP3, O95049]	below the threshold
SDSSGQEYSL [KCTD3, Q9Y597]	below the threshold
HNAFLSVTTV [PDZRN4, Q6ZMN7]	below the threshold

Q. Item TVICWPGSLV [LNX2, Q8N448] has what recorded pKd?
A. 3.9

Q. pKd for NRKREIFSNF [NHERF2, Q15599] ?
A. below the threshold

Q. // pKd lookup, key: PSASCAVTAA [PDLIM4, P50479;P50479-2]
A. below the threshold

Q. Name the recorded pKd for RRRKRKRTYL [HPV49-L2, P36762] .
A. 5.68

Q. Any idea what pKd was measured for ESLLLGPSNF [SHROOM4, Q9ULL8] ?
A. below the threshold
